# TGT: binding of recombinant macrophage-tropic strain JR-FL gp120 to immobilized recombinant CD4 (Homo sapiens, UniProt P01730)
# Construct: human CD4 (comprised of amino acids 1-371); made in house; host or cells: Sf9 insect cells, baculovirus vector pAcGP67
# PROTOCOL_NOTES: gp120/CD4 binding assay (DELFIA competition assay, europium-labeled gp120, immobilized CD4)
# Design: species or system HIV (strain JR-FL) gp120; human CD4
# PROTOCOL_CONDITIONS: gp120/CD4 binding assay; read-out: Activity (IC50 level in the gp120/CD4 binding assay)
Recorded IC50 by entry

Example results:
> print(dat)
                                 mol.smiles  assay.metric               val
1  O=C(O)[C@H](Cc1ccccc1)NS(=O)(=O)c1cnc(N2CCC(CCCCC3CCN(S(=O)(=O)c4cc(Br)c(Cl)s4)CC3)CC2)c(C(F)(F)F)c1          IC50  1000 to 10000 nM
2  O=C(O)C1(NS(=O)(=O)c2cnc(N3CCC(CCCC4CCN(S(=O)(=O)c5cc(Br)c(Cl)s5)CC4)CC3)c(Br)c2)CCCCC1          IC50         < 1000 nM
3  CSCC[C@H](NS(=O)(=O)c1ccc(N2CCC(CCCC3CCN(S(=O)(=O)c4ccc(C(C)(C)C)cc4)CC3)CC2)c(Cl)c1)C(=O)O          IC50  1000 to 10000 nM
4  O=C(O)[C@H](Cc1ccc(Cl)cc1)NS(=O)(=O)c1cnc(N2CCC(CCCCCC3CCN(S(=O)(=O)c4cc(Br)c(Cl)s4)CC3)CC2)c(Br)c1          IC50  1000 to 10000 nM
5  O=C(O)[C@H](Cc1ccccc1)NS(=O)(=O)c1cnc(N2CCC(CCCCCCCC3CCN(S(=O)(=O)c4cc(Br)c(Cl)s4)CC3)CC2)c(Br)c1          IC50         < 1000 nM

--- query ---
Lab book: IC50 of O=C(O)[C@@H]1CC[C@H](NS(=O)(=O)c2ccc(N3CCC(CCCC4CCN(S(=O)(=O)c5ccc(F)cc5)CC4)CC3)c(Cl)c2)C1 noted as > 10000 nM
